These measurements were taken from PubChem BioAssay (NCI).

- Tested on: T-47D breast
- protocol-text: NCI-60 one-dose screen, 48 h
- measurement-parameters: 10 µM
The panel holds about 83,000 compounds, 20% with a hit somewhere; the sample as a whole holds those more often. The source made the active and inactive calls. The calls were made as follows: active = growth percent below 10; inactive = the rest.
Pick one and only one: active, inactive

Prompt: # lookup: test call for OCc1[nH]nc2cc(Nc3ncc4ccc(Br)c(OC5CCC(O)CC5)c4n3)ccc12 (centres undefined)
Response: active

Prompt: Outcome? Cc1cc2nc3c4ccccc4n(CCO)c3nc2cc1C
Response: inactive

Prompt: Status in this test for O=c1oc2ccc(-c3ccc(F)cc3F)cc2c(=O)n1-c1ccc(F)cc1 ?
Response: active

Prompt: How was CC1=N/C(=C\c2ccc(N(C)C)cc2)C(=O)N1CCc1ccc(S(N)(=O)=O)cc1 classified in this test?
Response: inactive

---

- System: SW-620 colon
- protocol-text: NCI-60 one-dose screen, 48 h (100 = growth as untreated, 0 = no growth, -100 = all killed)
- measurement-parameters: 10 µM
About 83,000 compounds went through this panel and 20% of them were active in at least one assay; those are over-represented in the sample as a whole.
quantity-name: growth (%)
Answers are plain numbers, in %.

CC1(c2ccccc2)NC(=O)N(CC(=O)Nc2ccc(C(=O)/C=C/c3ccc(Br)cc3)cc2)C1=O (stereo not drawn) : 32.7
O=S(=O)(Nc1ncccn1)c1ccc(-n2c(-c3ccccc3)nc(-c3ccccc3)c2-c2ccccc2)cc1 : 91.9
Cc1ccc(/C=C(\C#N)n2nnc3c(F)cccc32)cc1 : 14
Cc1ccc(-c2nc3ccc(C(=O)N=Nc4c(O)[nH]c5ccc(Cl)cc45)cc3[nH]2)cc1 : -34
O=C1NC(=NC23CC4CC(CC(C4)C2)C3)N/C1=C\c1ccc2ncoc2c1 : 9.67

Please look at the items below and tell me growth for each one, in order.
1. C=C1CCC2C3(C)COC(c4ccccc4F)OC3CCC2(C)C1C/C=C1/C(=O)OCC1O (stereo not drawn)
2. Cc1cc(=O)oc2cc(OCCCCOc3ccc(/C=C/C(=O)Nc4ccc(F)c(Cl)c4)cc3)ccc12

Response:
-68.5
96.9

Prompt: Tell me the measured growth of CCCSc1nc(NC2CC2)c(C#N)c(-c2ccc(OC)cc2)n1 , please.
Response: 105

---

- Tested on: HOP-62 NSCLC
- protocol-text: NCI-60 one-dose screen, 48 h
- measurement-parameters: 10 µM
Compounds without any hit were thinned out: in the full panel of roughly 83,000, 20% have a hit. The source made the active and inactive calls. The calls were made as follows: active = growth percent below 10; inactive = the rest.
Returns: one label drawn from active, inactive

Study these solved cases before continuing.
COc1ccc2ncc(C#Cc3cncc(C(=O)Nc4ccc(CN5CCN(C)CC5)c(C(F)(F)F)c4)c3)n2n1 : active
COc1ccc(NC(=O)Cn2c(/C=C/c3ccc(N(C)C)cc3)nc3ccccc3c2=O)cc1 : inactive
O=C(CS(=O)(=O)c1oc(-c2ccc(Cl)cc2)nc1S(=O)(=O)c1ccccc1)N1CCCC1 : inactive

Prompt: Test call for this compound, please: O=C(N=Nc1c(O)[nH]c2ccc(Br)cc12)c1ccc2nc(-c3ccccc3)[nH]c2c1
Response: active

Prompt: // param item: O=C(CSc1nnc(-c2c[nH]c3ccccc23)n1-c1ccccc1)c1ccc(Cl)cc1 ; yields the recorded call
Response: inactive

---

Record form. Attribute: growth. Fill in for each entry.
- System: NCI-H322M lung
- protocol-text: NCI-60 one-dose screen, 48 h (100 = growth as untreated, 0 = no growth, -100 = all killed)
- measurement-parameters: 10 µM
The panel holds about 83,000 compounds, 20% with a hit somewhere; the sample as a whole holds those more often.
Numbers only, in %.

O=C(Cn1nc(-c2ccccc2)ccc1=O)NN1C(=O)c2ccccc2C1=O : 117
CN1C(=O)/C(=C/c2nccs2)SC1=S : 83.7
Cc1nn(-c2ccccc2)c2ncn(CC(=O)N/N=C/c3c[nH]c4ccccc34)c(=O)c12 : 93.5
N#Cc1c(-c2ccc(Cl)cc2)cc(-c2ccccc2)nc1OCc1ccccc1 : 96.6
COC[C@@H](CC(C)C)N=C1NC(=O)/C(=C/c2ccc3ncsc3c2)N1 : 15.8

Give growth for all compounds that follow.
1. CN1C/C(=C\c2ccc(O)cc2O)c2[o+]c3cc(O)ccc3cc2C1
2. O=C(c1ccc(Cl)cc1)C1[C@H](c2ccc(Br)cc2)[C@@H](c2ccccc2)NC12C(=O)Nc1ccc(Cl)cc12 (stereo partly drawn)
3. Cc1ccc([N+](=O)[O-])c(C(=O)Nc2ccc(-c3ccc4c(c3)NC(=O)/C4=C\c3ccc[nH]3)cc2)c1
4. CN1C(=O)N(C)C2SC(N/N=C/c3ccccc3F)=NC21 (stereo not drawn)
5. CN1CCN(c2ccc(Nc3nc(N4CCN(S(=O)(=O)c5ccc(F)cc5)CC4)c4sccc4n3)cc2)CC1
6. Cc1ccc(NCC(=O)Nn2c(COc3ccccc3)nc3ccccc3c2=O)cc1
7. CC(=O)c1ccc(Nc2nc(SCCC(C)C)nc(-c3ccc(F)cc3)c2C#N)cc1
8. COc1ccc(C2NC(=S)NC(C)=C2C(=O)OC(C)C)cc1OC (stereo not drawn)

Response:
[88, -28.6, 48.9, 97.2, -88, 85.9, 41.4, 96.8]

State the recorded growth for every item in the following list.
1. COC[C@@H](CC(C)C)N=C1NC(=O)/C(=C/c2ccc3ncoc3c2)N1
2. COc1cc(/C=C/C(=O)c2ccc(F)cc2)ccc1Oc1nc(Nc2ccc(F)cc2)nc(N(C)C)n1
3. CC1=C(c2cc(-c3ccc(Cl)cc3)c(C#N)c(N)n2)C(c2ccccc2)NC(=S)N1 (stereo not drawn)
4. Cc1ccc(-c2cc(C(=O)N=Nc3c(O)[nH]c4ccccc34)c3ccccc3n2)cc1

Response:
[20.4, 79.1, 96.4, 69.8]

// each listed compound needs a value for growth
1. COc1ccc(C(=O)Nc2sc3c(c2C#N)CCC(=O)C3)cc1C(F)(F)F
2. O=c1[nH]c2ccccc2cc1CSc1ccc(Nc2nccc(-c3ccc(Cl)cc3)n2)cc1
3. C=C[C@@]12CN3CC[C@]1(O)[C@@](C(=O)OC)(CO2)c1[nH]c2ccccc2c1C3
4. CC1CC(c2ccc(N(C)C)cc2)=NN1c1nc(O)c(C2=c3cc(Br)ccc3=NC2=O)s1 (stereo not drawn)
5. COc1cc2c(c(OC)c1OC)C(=O)CC(c1cccc(NC(=O)c3cccc(N)c3)c1)O2 (stereo not drawn)
6. COc1cnc2c(c1)C(=O)c1c-2n(CCCNCCO)c(=O)c2cc(OC)c(OC)cc12

Response:
85.9
0.401
93.7
112
91
30.9
